# relative viability listing for each entry below
- Tested on: NCI-H1734
- Experimental Details: relative viability (nuclei count vs DMSO), 5 days (fraction); higher = more cells survive
- Experimental Context: first compound 0.4 µM

Compound	relative viability
Cc1sc2c(c1C)C(c1ccc(Cl)cc1)=N[C@@H](CC(=O)OC(C)(C)C)c1nnc(C)n1-2 [JQ1] + CS(=O)(=O)CCNCc1ccc(-c2ccc3ncnc(Nc4ccc(OCc5cccc(F)c5)c(Cl)c4)c3c2)o1 [Lapatinib] (partner 2 µM)	1.03
Cc1sc2c(c1C)C(c1ccc(Cl)cc1)=N[C@@H](CC(=O)OC(C)(C)C)c1nnc(C)n1-2 [JQ1] + O=C(CCCCCCC(=O)Nc1ccccc1)NO [Vorinostat] (partner 1 µM)	0.712
Cc1sc2c(c1C)C(c1ccc(Cl)cc1)=N[C@@H](CC(=O)OC(C)(C)C)c1nnc(C)n1-2 [JQ1] + CC(=O)Nc1cccc(-n2c(=O)n(C3CC3)c(=O)c3c(Nc4ccc(I)cc4F)n(C)c(=O)c(C)c32)c1 [Trametinib] (partner 0.02 µM)	0.644
Cc1sc2c(c1C)C(c1ccc(Cl)cc1)=N[C@@H](CC(=O)OC(C)(C)C)c1nnc(C)n1-2 [JQ1] + CCNC(=O)c1noc(-c2cc(C(C)C)c(O)cc2O)c1-c1ccc(CN2CCOCC2)cc1 [Luminespib] (partner 0.01 µM)	0.158
Cc1sc2c(c1C)C(c1ccc(Cl)cc1)=N[C@@H](CC(=O)OC(C)(C)C)c1nnc(C)n1-2 [JQ1] + C[C@]1(O)C[C@@H](c2nc(-c3ccc4ccc(-c5ccccc5)nc4c3)c3c(N)nccn32)C1 [Linsitinib] (partner 1 µM)	0.879
Cc1sc2c(c1C)C(c1ccc(Cl)cc1)=N[C@@H](CC(=O)OC(C)(C)C)c1nnc(C)n1-2 [JQ1] + COc1cc2c(Oc3ccc(NC(=O)C4(C(=O)Nc5ccc(F)cc5)CC4)cc3F)ccnc2cc1OCCCN1CCOCC1 [Foretinib] (partner 0.25 µM)	0.872
Cc1sc2c(c1C)C(c1ccc(Cl)cc1)=N[C@@H](CC(=O)OC(C)(C)C)c1nnc(C)n1-2 [JQ1] + Nc1nc2[nH]cc(CCc3ccc(C(=O)N[C@@H](CCC(=O)O)C(=O)O)cc3)c2c(=O)[nH]1 [Pemetrexed] (partner 0.2 µM)	0.327

* * *

- Test system: BEN
- Experimental Details: relative viability (nuclei count vs DMSO), 5 days (fraction); higher = more cells survive
- Experimental Context: first compound 158.11 µM

Compound	relative viability
O=C(O)CCCCC(CCSCc1ccccc1)SCc1ccccc1 (stereo not drawn) [CPI-613] + O=C(CCCCCCC(=O)Nc1ccccc1)NO [Vorinostat] (partner 1 µM)	0.593
O=C(O)CCCCC(CCSCc1ccccc1)SCc1ccccc1 (stereo not drawn) [CPI-613] + C[C@@H](Oc1cc(-c2cnn(C3CCNCC3)c2)cnc1N)c1c(Cl)ccc(F)c1Cl [Crizotinib] (partner 1 µM)	0.743
O=C(O)CCCCC(CCSCc1ccccc1)SCc1ccccc1 (stereo not drawn) [CPI-613] + Cc1cc(Nc2cc(N3CCN(C)CC3)nc(Sc3ccc(NC(=O)C4CC4)cc3)n2)n[nH]1 [Tozasertib] (partner 0.1 µM)	0.535
O=C(O)CCCCC(CCSCc1ccccc1)SCc1ccccc1 (stereo not drawn) [CPI-613] + Nc1nc2[nH]cc(CCc3ccc(C(=O)N[C@@H](CCC(=O)O)C(=O)O)cc3)c2c(=O)[nH]1 [Pemetrexed] (partner 0.2 µM)	0.76
O=C(O)CCCCC(CCSCc1ccccc1)SCc1ccccc1 (stereo not drawn) [CPI-613] + C[C@]1(O)C[C@@H](c2nc(-c3ccc4ccc(-c5ccccc5)nc4c3)c3c(N)nccn32)C1 [Linsitinib] (partner 1 µM)	0.747
O=C(O)CCCCC(CCSCc1ccccc1)SCc1ccccc1 (stereo not drawn) [CPI-613] + Cc1nc(Nc2ncc(C(=O)Nc3c(C)cccc3Cl)s2)cc(N2CCN(CCO)CC2)n1 [Dasatinib] (partner 0.075 µM)	0.267
O=C(O)CCCCC(CCSCc1ccccc1)SCc1ccccc1 (stereo not drawn) [CPI-613] + CC1(C)CCC(c2ccc(Cl)cc2)=C(CN2CCN(c3ccc(C(=O)NS(=O)(=O)c4ccc(N[C@H](CCN5CCOCC5)CSc5ccccc5)c(S(=O)(=O)C(F)(F)F)c4)cc3)CC2)C1 [Navitoclax] (partner 0.5 µM)	0.0624
O=C(O)CCCCC(CCSCc1ccccc1)SCc1ccccc1 (stereo not drawn) [CPI-613] + Cc1nc(NC(=O)N2CCC[C@H]2C(N)=O)sc1-c1ccnc(C(C)(C)C(F)(F)F)c1 [Alpelisib] (partner 2 µM)	0.831

* * *

- Tested on: NCI-H1734
- Experimental Details: relative viability (nuclei count vs DMSO), 5 days (fraction); higher = more cells survive
- Experimental Context: first compound 2.53 µM
# Fulfilled = relative viability below 0.4 (exclusive); Not fulfilled = relative viability at/above 0.4

Molecule	Qualitative Label
O=c1[nH]c2ccccc2n1C1CCN(CCCC(c2ccc(F)cc2)c2ccc(F)cc2)CC1 [Pimozide] + C[C@@H](Oc1cc(-c2cnn(C3CCNCC3)c2)cnc1N)c1c(Cl)ccc(F)c1Cl [Crizotinib] (partner 1 µM)	Not fulfilled
Cc1cnc(-c2cnc(NCCNc3ccc(C#N)cn3)nc2-c2ccc(Cl)cc2Cl)[nH]1 + N=C(N)NC(=N)NCCc1ccccc1 [Phenformin] (partner 250 µM)	Fulfilled
O=c1[nH]c2ccccc2n1C1CCN(CCCC(c2ccc(F)cc2)c2ccc(F)cc2)CC1 [Pimozide] + O=C(CCCCCCC(=O)Nc1ccccc1)NO [Vorinostat] (partner 1 µM)	Not fulfilled
Cc1cnc(-c2cnc(NCCNc3ccc(C#N)cn3)nc2-c2ccc(Cl)cc2Cl)[nH]1 + COc1cc2c(Oc3ccc(NC(=O)C4(C(=O)Nc5ccc(F)cc5)CC4)cc3F)ccnc2cc1OCCCN1CCOCC1 [Foretinib] (partner 0.25 µM)	Not fulfilled
Cc1cnc(-c2cnc(NCCNc3ccc(C#N)cn3)nc2-c2ccc(Cl)cc2Cl)[nH]1 + Nc1nc2[nH]cc(CCc3ccc(C(=O)N[C@@H](CCC(=O)O)C(=O)O)cc3)c2c(=O)[nH]1 [Pemetrexed] (partner 0.2 µM)	Fulfilled
O=c1[nH]c2ccccc2n1C1CCN(CCCC(c2ccc(F)cc2)c2ccc(F)cc2)CC1 [Pimozide] + Nc1ncn([C@H]2C[C@H](O)[C@@H](CO)O2)c(=O)n1 [Decitabine] (partner 2 µM)	Not fulfilled
O=c1[nH]c2ccccc2n1C1CCN(CCCC(c2ccc(F)cc2)c2ccc(F)cc2)CC1 [Pimozide] + C[C@]1(O)C[C@@H](c2nc(-c3ccc4ccc(-c5ccccc5)nc4c3)c3c(N)nccn32)C1 [Linsitinib] (partner 1 µM)	Not fulfilled

* * *

- System: NCI-H838
- Experimental Details: relative viability (nuclei count vs DMSO), 5 days (fraction); higher = more cells survive
- Experimental Context: first compound 0.002 µM
Result Type: relative viability

Compound	Recorded Value
CC(=O)O[C@@]12CO[C@@H]1C[C@H](O)[C@@]1(C)C(=O)[C@H](O)C3=C(C)[C@@H](OC(=O)[C@H](O)[C@@H](NC(=O)OC(C)(C)C)c4ccccc4)C[C@@](O)([C@@H](OC(=O)c4ccccc4)[C@H]21)C3(C)C [Docetaxel] + COc1cccc2cc(-c3nc([C@H]4CC[C@H](C(=O)O)CC4)n4ncnc(N)c34)[nH]c12 [OSI-027] (partner 0.5 µM)	0.259
CC(=O)O[C@@]12CO[C@@H]1C[C@H](O)[C@@]1(C)C(=O)[C@H](O)C3=C(C)[C@@H](OC(=O)[C@H](O)[C@@H](NC(=O)OC(C)(C)C)c4ccccc4)C[C@@](O)([C@@H](OC(=O)c4ccccc4)[C@H]21)C3(C)C [Docetaxel] + Cc1nc(NC(=O)N2CCC[C@H]2C(N)=O)sc1-c1ccnc(C(C)(C)C(F)(F)F)c1 [Alpelisib] (partner 2 µM)	0.286
CC(=O)O[C@@]12CO[C@@H]1C[C@H](O)[C@@]1(C)C(=O)[C@H](O)C3=C(C)[C@@H](OC(=O)[C@H](O)[C@@H](NC(=O)OC(C)(C)C)c4ccccc4)C[C@@](O)([C@@H](OC(=O)c4ccccc4)[C@H]21)C3(C)C [Docetaxel] + C[C@@H](Oc1cc(-c2cnn(C3CCNCC3)c2)cnc1N)c1c(Cl)ccc(F)c1Cl [Crizotinib] (partner 1 µM)	0.155

* * *

- Test system: NCI-H1563
- Experimental Details: relative viability (nuclei count vs DMSO), 5 days (fraction); higher = more cells survive
- Experimental Context: first compound 0.05 µM
We label by threshold. Values of relative viability strictly beneath 0.6 are class 1. Values of 0.6 and up are class 0.

Compound	Qualitative Label
Nc1ccn([C@@H]2O[C@H](CO)[C@@H](O)[C@@H]2O)c(=O)n1 [Cytarabine] + Nc1nc2[nH]cc(CCc3ccc(C(=O)N[C@@H](CCC(=O)O)C(=O)O)cc3)c2c(=O)[nH]1 [Pemetrexed] (partner 0.2 µM)	class 0
Nc1ccn([C@@H]2O[C@H](CO)[C@@H](O)[C@@H]2O)c(=O)n1 [Cytarabine] + C[C@@H](Oc1cc(-c2cnn(C3CCNCC3)c2)cnc1N)c1c(Cl)ccc(F)c1Cl [Crizotinib] (partner 1 µM)	class 0
Nc1ccn([C@@H]2O[C@H](CO)[C@@H](O)[C@@H]2O)c(=O)n1 [Cytarabine] + N=C(N)NC(=N)NCCc1ccccc1 [Phenformin] (partner 250 µM)	class 0
Nc1ccn([C@@H]2O[C@H](CO)[C@@H](O)[C@@H]2O)c(=O)n1 [Cytarabine] + Cc1nc(Nc2ncc(C(=O)Nc3c(C)cccc3Cl)s2)cc(N2CCN(CCO)CC2)n1 [Dasatinib] (partner 0.075 µM)	class 1
COc1cc2nccc(Oc3ccc(NC(=O)Nc4cc(C)on4)c(Cl)c3)c2cc1OC [Tivozanib] + Cc1nc(Nc2ncc(C(=O)Nc3c(C)cccc3Cl)s2)cc(N2CCN(CCO)CC2)n1 [Dasatinib] (partner 0.075 µM)	class 1
Nc1ccn([C@@H]2O[C@H](CO)[C@@H](O)[C@@H]2O)c(=O)n1 [Cytarabine] + C[C@]1(O)C[C@@H](c2nc(-c3ccc4ccc(-c5ccccc5)nc4c3)c3c(N)nccn32)C1 [Linsitinib] (partner 1 µM)	class 0
COc1cc2nccc(Oc3ccc(NC(=O)Nc4cc(C)on4)c(Cl)c3)c2cc1OC [Tivozanib] + CCNC(=O)c1noc(-c2cc(C(C)C)c(O)cc2O)c1-c1ccc(CN2CCOCC2)cc1 [Luminespib] (partner 0.01 µM)	class 1
Nc1ccn([C@@H]2O[C@H](CO)[C@@H](O)[C@@H]2O)c(=O)n1 [Cytarabine] + CC(C)C[C@H](NC(=O)[C@H](Cc1ccccc1)NC(=O)c1cnccn1)B(O)O [Bortezomib] (partner 0.002 µM)	class 0
Nc1ccn([C@@H]2O[C@H](CO)[C@@H](O)[C@@H]2O)c(=O)n1 [Cytarabine] + Cc1nc(NC(=O)N2CCC[C@H]2C(N)=O)sc1-c1ccnc(C(C)(C)C(F)(F)F)c1 [Alpelisib] (partner 2 µM)	class 0
COc1cc2nccc(Oc3ccc(NC(=O)Nc4cc(C)on4)c(Cl)c3)c2cc1OC [Tivozanib] + COc1cc2c(Oc3ccc(NC(=O)C4(C(=O)Nc5ccc(F)cc5)CC4)cc3F)ccnc2cc1OCCCN1CCOCC1 [Foretinib] (partner 0.25 µM)	class 0
COc1cc2nccc(Oc3ccc(NC(=O)Nc4cc(C)on4)c(Cl)c3)c2cc1OC [Tivozanib] + CC(C)C[C@H](NC(=O)[C@H](Cc1ccccc1)NC(=O)c1cnccn1)B(O)O [Bortezomib] (partner 0.002 µM)	class 0
